# Target Desc: T1, APC4436-AA
# T1 chain: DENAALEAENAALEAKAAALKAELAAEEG
# Assay Remarks: two-hybrid library CCmax;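 also: natural log of median RNA to DNA barcode read ratio; higher means stronger binding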
# Details: mean of both orientations
Measurement Kind: interaction score

DKIAALEAKNAALEAEIAALKAKNAALEG [4H2447-AA]    -1.79
DKIAALEAKNAALEAENAALKAEIAALKG [4H2458-AA]    -1.67
DEIAALKAENAALKAEIAALKAENAALKG [4H716-AA]    -1.65
DEIAALKAENAALKAENAALKAKIAALEG [4H733-AA]    -1.66
DKIAALEAENAALKAKNAALEAEIAALKG [4H2290-AA]    -1.53
DEAAALEAENAALEAELAAIEAKNAALKG [APC2405-AA]    -1.04
DKIAALEAEIAALKAKIAALEAENAALKG [4H2148-AA]    -1.32
